# experimentalSystem: Cytochrome P450 2D6 (Homo sapiens) (UniProt P10635)
# Sequence (P10635 whole entry, looked up): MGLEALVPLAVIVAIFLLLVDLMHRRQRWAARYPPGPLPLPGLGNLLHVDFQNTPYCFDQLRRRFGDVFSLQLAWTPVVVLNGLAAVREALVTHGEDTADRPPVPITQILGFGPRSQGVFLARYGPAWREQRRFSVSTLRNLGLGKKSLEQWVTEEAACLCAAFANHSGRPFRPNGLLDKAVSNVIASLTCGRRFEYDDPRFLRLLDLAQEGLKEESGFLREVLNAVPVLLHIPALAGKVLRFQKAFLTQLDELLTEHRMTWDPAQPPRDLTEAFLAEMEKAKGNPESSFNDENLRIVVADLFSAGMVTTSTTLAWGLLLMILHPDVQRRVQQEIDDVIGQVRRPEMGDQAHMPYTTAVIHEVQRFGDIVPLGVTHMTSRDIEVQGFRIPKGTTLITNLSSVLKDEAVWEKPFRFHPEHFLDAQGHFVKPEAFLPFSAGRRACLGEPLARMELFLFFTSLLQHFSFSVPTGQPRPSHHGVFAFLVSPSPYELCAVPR
# experiment: qHTS Assay for Inhibitors and Substrates of Cytochrome P450 2D6 (AID 891); note: nearly all actives have a fitted effect of over 60% in size
# measurementContext: recombinant CYP2D6, luciferin-ME EGE luminescence; series mostly up to 57.1 µM
Inconclusive results are not listed. Active and inactive are the calls of the source. Calls come from the whole dose curve; as a rule, active = well fitted inhibition curve with a large enough effect; inconclusive = small, poorly fitted or top-dose-only effect; inactive = no such curve, though single readings can be large or run the other way.
Entry note: the call must match one of active, inactive

Here are 8 molecules together with their reported answers.
molecule | categoryLabel
c1ccc(CCCCN2CCC(c3ccccc3)CC2)cc1 | active
COc1ccn(C)c(=O)c1C#N | inactive
Fc1ccc(C(OCCN2CCN(C/C=C\c3ccccc3)CC2)c2ccc(F)cc2)cc1 | active
NC[C@H](CC(=O)O)c1ccc(Cl)cc1 | active
C[C@@H](C(=O)OC1C[C@H]2CC[C@@H](C1)N2C)c1ccc(Br)cc1 (stereo partly specified) | active
CS(=O)(=O)Nc1ccc(Cc2noc(-c3ccc4[nH]cc(CCN)c4c3)n2)cc1 | active
CCOC(=O)c1ncn2c1[C@H]1CCCN1C(=O)c1cc(OC)ccc1-2 | inactive
C/C(O)=C(/C#N)C(=O)Nc1cc(Br)ccc1Br | inactive

Query: What was the test verdict on "Nc1nc2ccc(Cl)cc2c2nc(-c3ccco3)nn12" ?
Reply: inactive

Query: What was the test verdict on "N[C@H](CCCCCP(=O)(O)O)C(=O)O" ?
Reply: inactive

Query: What was the test verdict on "CCCCCCC[n+]1ccc(-c2cc[n+](CCCCCCC)cc2)cc1" ?
Reply: active

Query: What was the test verdict on "CC(C)(C)c1o[nH]c(=O)c1C[C@H](N)C(=O)O" ?
Reply: inactive

Query: What was the test verdict on "COc1ccc(C[C@H]2NC[C@H](O)[C@@H]2OC(C)=O)cc1" ?
Reply: active

Query: What was the test verdict on "NC[C@@H](CC(=O)O)c1ccc(Cl)cc1" ?
Reply: inactive

Query: What was the test verdict on "N[C@H](Cc1o[nH]c(=O)c1Cl)C(=O)O" ?
Reply: active

Query: What was the test verdict on "C(=C/c1ccccc1)/CN1CCN(CCOC(c2ccccc2)c2ccccc2)CC1" ?
Reply: active

----------
# experiment: qHTS profiling of the MIPE4 collection as inhibitors of Plasmodium falciparum (DD2) proliferation (Rep 2) (AID 743346)
# measurementContext: P. falciparum Dd2 in erythrocytes, SYBR Green DNA, 72 h; at 28.5 µM (top of the series) unless noted
Reported parasite growth, % of control (lower = inhibition) is given for each of the following compounds.
Field format: number, assumed %, no unit text.

compoundStructure | result
c1coc(CNc2ncnc3nc[nH]c23)c1 | 80

Pending compound:
Query: Record request: parasite growth, % of control (lower = inhibition) value, item "O=C(O)c1ccccc1C(=O)Nc1ccc(-c2ccccc2)cc1"
Reply: 82.2

----------
# experiment: Cytotoxicity counterscreen for inhibitors of SARS-CoV-2 cell entry (AID 1645845); note: nearly all actives have a fitted effect of over 50% in size
# measurementContext: cell viability (SARS-CoV-2 entry assay cells); series mostly up to 57.1 µM
Inconclusive results are not listed. Activity calls are given as the source filed them. Calls come from the whole dose curve.
outcomeMeasure: outcome

compoundStructure | result
O=C(O)c1nc(=O)[nH]c(=O)[nH]1 | inactive
COc1cc(C(C)C)c(Oc2cnc(NC(CO)CO)nc2N)cc1I | inactive
O=C1NC(=O)/C(=C/c2ccc(-c3ccc(F)cc3O)o2)S1 | inactive
Cc1cc(OCCCS(C)(=O)=O)cc(C)c1-c1cccc(COc2ccc3c(c2)OC[C@H]3CC(=O)O)c1 | inactive

The reported numbers originate from PubChem BioAssay (NCATS).
